system: Artemia franciscana; assay: Ecotoxicity toward aquatic life, Artoxkit M immobilization test; format: in vivo; details: Artemia franciscana; immobilization, motionless organisms counted after 24 and 48 h, 25 °C; read-out: EC50
Criterion: EC50 strictly less than 300 µg/mL. Met: 1. Not met: -1.

Use the examples below as a reference point.
INSERT INTO results (structure_as_smiles, category_label) VALUES
  ('CCCCCCCCCCCCCC[n+]1cccc(C(N)=O)c1.O=C([O-])c1ccccc1O', 1),
  ('CCCCCCCC[n+]1cccc(C(N)=O)c1.O=C([O-])c1ccccc1O', -1),
  ('CCCCCC[n+]1cccc(C(N)=O)c1.O=C([O-])c1ccccc1O', -1);

Identify whether the compound `CCCCCCCCCC[n+]1cccc(C(N)=O)c1.O=C([O-])c1ccccc1O` records EC50 below 300 µg/mL.
1

Please let me know if `CCCCCCCCCCCC[n+]1cccc(C(N)=O)c1.O=C([O-])c1ccccc1O` shows EC50 below 300 µg/mL.
1

====

system: Pseudomonas aeruginosa; assay: MIC and MBC determination, microdilution method; format: cell-based; conditions: 18 h, read-out: MIC, P. aeruginosa
Measured Metric: MIC (µg/mL)
Answer format: numeric, µg/mL implied, no suffix.

Here's what some known entries look like.
INSERT INTO measurements (compound, assayed_target, numeric_value) VALUES
  ('NC(=O)c1cccnc1.O=C(O)c1ccccc1O [[NA][SAL], reference compound]', 'Pseudomonas aeruginosa', 2050),
  ('CCCCCCCCCCCC[n+]1cccc(C(N)=O)c1.O=C([O-])c1ccccc1O [compound 6]', 'Pseudomonas aeruginosa', 256),
  ('CCCCCCCCCC[n+]1cccc(C(N)=O)c1.O=C([O-])c1ccccc1O [compound 5]', 'Pseudomonas aeruginosa', 1020);

Could you now consider this next compound?
# get_value(readout= MIC, system= Pseudomonas aeruginosa) for CCCCCCCCCCCCCC[n+]1cccc(C(N)=O)c1.O=C([O-])c1ccccc1O [compound 7]
64

====

Assay: Octanol–water partition coefficient, shake-flask method (OECD Test No. 107)
Type: physicochemical
Conditions: shake-flask, 25 °C, 24 h, average of six results; read-out: Octanol-water partition coefficient (log Kow)
Protocol: The octanol–water partition coefficients (KOW) of the synthesized products were estimated by the shake-flask method according to the OECD Test No. 107 guidelines (Partition Coefficient n-Octanol/Water: Shake-Flask Method). […] The concentrations of compounds in water were determined spectrophotometrically using a Rayleigh UV-1601 spectrophotometer (Beijing Beifen-Ruili Analytical, China) based on calibration curves made previously (at λmax = 262 nm) vs concentration for each substance. […]
Measured Metric: logP at 24 h

INSERT INTO measurements (structure_as_smiles, measured_metric, result) VALUES
  ('CCCC[n+]1cccc(C(N)=O)c1.O=C([O-])c1ccccc1O', 'logP at 24 h', -0.7),
  ('CC[n+]1cccc(C(N)=O)c1.O=C([O-])c1ccccc1O', 'logP at 24 h', -1.15),
  ('CCCCCCCCCC[n+]1cccc(C(N)=O)c1.O=C([O-])c1ccccc1O', 'logP at 24 h', 0.59),
  ('CCCCCC[n+]1cccc(C(N)=O)c1.O=C([O-])c1ccccc1O', 'logP at 24 h', -0.18);

Query (compound): `CCCCCCCCCCCCCC[n+]1cccc(C(N)=O)c1.O=C([O-])c1ccccc1O` ; field requested: logP at 24 h
1.34

Give the measured logP at 24 h of `CCCCCCCCCCCC[n+]1cccc(C(N)=O)c1.O=C([O-])c1ccccc1O` .
0.6

Fill in: logP at 24 h of `CCCCCCCC[n+]1cccc(C(N)=O)c1.O=C([O-])c1ccccc1O` is ___
0.07
